biological target: SNX27, Q96L92; assay: holdup assay; parameters: key: below the threshold = too weak to quantify, mostly under pKd 3.1 to 4; conditions: plain residues with an end cap or a label only (N-terminal biotin on a linker: ado-ado)
Classification field: 1 = pKd at or over 5; -1 = pKd under 5.

Answered cases to consult:
IGHEDLETAV [DGKI, O75912] ... 1
SRPHTNETSL [MCC, P23508] ... 1
PALKNGQYWV [CSPG4, Q6UVK1] ... -1
PLPPEEESWV [GAS2L2, Q8NHY3] ... 1

QUERY: Identify whether the reported pKd of the following binder is 5 or greater: GQNMTVSVVI [PRLHR, P49683]
RESULT: -1

QUERY: Identify whether the reported pKd of the following binder is 5 or greater: GTMFLRETSL [GUCY1A2, P33402]
RESULT: 1

QUERY: Identify whether the reported pKd of the following binder is 5 or greater: EKPIDSETKM [SLC1A3, P43003]
RESULT: 1

QUERY: Identify whether the reported pKd of the following binder is 5 or greater: PEKVSNTTVV [IGSF5, Q9NSI5]
RESULT: -1

QUERY: Identify whether the reported pKd of the following binder is 5 or greater: VCMGDHWFDV [PRKN, O60260]
RESULT: -1
